The reported measurements were obtained from patent US9266964.

# pKi per entry
EXPERIMENTAL SYSTEM: T1, human plasma kallikrein (full length, active) (human, UniProt P03952 20-390; P03952 391-638)
T1 construct: two disulfide linked polypeptides; also called Full length pKal; pKal
T1 sequence (P03952 20-390, chain 1 of 2): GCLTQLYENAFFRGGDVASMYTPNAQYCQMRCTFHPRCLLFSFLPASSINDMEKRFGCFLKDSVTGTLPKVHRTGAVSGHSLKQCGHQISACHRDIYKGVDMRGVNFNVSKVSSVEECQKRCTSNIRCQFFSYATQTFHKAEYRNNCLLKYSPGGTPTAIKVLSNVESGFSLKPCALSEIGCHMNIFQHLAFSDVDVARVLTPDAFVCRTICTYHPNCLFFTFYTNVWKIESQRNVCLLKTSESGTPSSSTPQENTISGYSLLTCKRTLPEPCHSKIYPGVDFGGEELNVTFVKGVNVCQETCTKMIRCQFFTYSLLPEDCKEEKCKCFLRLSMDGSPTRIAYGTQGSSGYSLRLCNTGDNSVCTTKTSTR
T1 sequence (P03952 391-638, chain 2 of 2): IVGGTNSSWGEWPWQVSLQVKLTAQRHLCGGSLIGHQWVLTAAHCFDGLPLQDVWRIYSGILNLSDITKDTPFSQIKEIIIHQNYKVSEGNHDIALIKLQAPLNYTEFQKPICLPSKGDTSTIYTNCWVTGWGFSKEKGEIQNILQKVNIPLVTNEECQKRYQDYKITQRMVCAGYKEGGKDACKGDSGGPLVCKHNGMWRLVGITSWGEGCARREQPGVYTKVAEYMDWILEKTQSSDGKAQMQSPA
MEASUREMENT DESCRIPTION: Ki,app: enzyme inhibition, fluorescent substrate, 2 h pre-incubation at 30 C, tight-binding fit
FYI, pKi means -log10 of a concentration in mol per litre.

Before answering, review these 2 worked examples.
[[record]]
binder = "M29-D09 (Fab, V domains shown, also called 559A-M29-D09 (sFab); 559A-M0029-D09) VH: EVQLLESGGGLVQPGGSLRLSCAASGFTFSWYTMVWVRQAPGKGLEWVSYIYPSGGATFYADSVKGRFTISRDNSKNTLYLQMNSLRAEDTAVYYCAMGSYDYIWGFYSDHWGQGTLVTVSS VL: QSALTQPPTVSVSPGQTARITCSGNKLGDKYVAWYQQKPGQSPMLVIYQDTKRPSRVSERFSGSNSANTATLSISGTQALDEADYYCQAWDSSIVIFGGGTRLTVL"
readout_name = "pKi"
numeric_readout = 9.15

[[record]]
binder = "X115-B07 (antibody, V domains shown, only variable domains given; also called 559A-X115-B07; 559A-X0115-B07) VH: EVQLLESGGGLVQPGGSLRLSCAASGFTFSHYLMTWVRQAPGKGLEWVSYISPSGGHTIYADSVKGRFTISRDNSKNTLYLQMNSLRAEDTAVYYCAMVGQGIRGRSRTSYFAQWGQGTLVTVSS VL: EIVLTQSPGTLSLSPGERATLSCRTSQFVNSNYLAWYQQKPGQAPRLLIYGASSRATGIPDRFSGSGSGTDFTLTISRLEPEDFAVYYCQQSSRTPWTFGQGTKVEIK"
readout_name = "pKi"
numeric_readout = 9.48


Next binder, please.
The binder identified as M145-D11 (Fab, V domains shown, also called 559A-M145-D11 (sFab); 559A-M0145-D11) VH: EVQLLESGGGLVQPGGSLRLSCAASGFTFSHYRMSWVRQAPGKGLEWVSSIYPSGGRTVYADSVKGRFTISRDNSKNTLYLQMNSLRAEDTAVYYCAKDKFEWRLLFRGIGNDAFDIWGQGTMVTVSS VL: QSVLTQPPSVSVSPGQTASITCSGDKLGDKYTSWYQQRPGQSPVLVIYQDIKRPSGIPERFSGSNSGNTATLTISGTQAMDEADYYCQAWDSPNARVFGSGTKVTVL registered its pKi at 9.10
